- assay details: Drug uptake in C57BL/6J mouse brain at 10 mg/kg, po measured after 1 hr by LC-MS/MS analysis
- Type: ADME, organism-based
- condition: read-out: Drug uptake
measurement type: concentration at 1 h (ng/g)

// below: answered compounds
CC(=O)N/C(N)=N/C(=N/S(=O)(=O)N1CCC(F)(F)CC1)N1CC(c2ccccc2)C(c2ccc(Cl)cc2)=N1 (centres undefined) | 4
CC(=O)N/C(N)=N/C(=N/S(=O)(=O)N1CCC(C(F)(F)F)CC1)N1CC(c2ccccc2)C(c2ccc(Cl)cc2)=N1 (centres undefined) | 0.21
CC(=O)N/C(N)=N/C(=N/S(=O)(=O)c1ccc(Cl)cc1)N1C[C@H](c2ccccc2)C(c2ccc(Cl)cc2)=N1 | 140
CC(=O)N/C(N)=N/C(=N/S(=O)(=O)N1CCCCC1)N1CC(c2ccccc2)C(c2ccc(Cl)cc2)=N1 (centres undefined) | 1.9
CC(=O)N/C(N)=N/C(=N/S(=O)(=O)c1ccc(I)cc1)N1C[C@H](c2ccccc2)C(c2ccc(Cl)cc2)=N1 | 103

A. CC(=O)N/C(N)=N/C(=N/S(=O)(=O)c1ccc2ccccc2c1)N1C[C@H](c2ccccc2)C(c2ccc(Cl)cc2)=N1
B. CC(C)(C)OC(=O)N/C(N)=N/C(=N/S(=O)(=O)c1ccc(Cl)cc1)N1CC(c2ccccc2)C(c2ccc(Cl)cc2)=N1 (centres undefined)
C. CON(C)/C(N)=N/C(=N/S(=O)(=O)c1ccc(Cl)cc1)N1CC(c2ccccc2)C(c2ccc(Cl)cc2)=N1 (centres undefined)
D. N/C(=N\C(=N\S(=O)(=O)c1ccc(Cl)cc1)N1CC(c2ccccc2)C(c2ccc(Cl)cc2)=N1)n1cccn1 (centres undefined)
Let's sort these by concentration at 1 h, smallest first. Go ahead? Answer format: list of labels, ordered as asked.
A, C, B, D
